# assayed-system: Luciferin 4-monooxygenase (Photuris pensylvanica)
# protocol-summary: Secondary Assay for Luciferase (Kinase-Glo TM) Inhibition Counterscreen
# applied-conditions: Kinase-Glo luciferase enzyme, luminescence; series mostly up to 58.1 µM
Results filed as inconclusive are left out. Calls of active or inactive are those of the source. Calls come from the whole dose curve; as a rule, active = well fitted inhibition curve with a large enough effect; inconclusive = small, poorly fitted or top-dose-only effect; inactive = flat fitted curve, though single readings scatter.
Mark one answer only. Choices: active, inactive

What classification did `O=c1[nH]c2ccccc2n2c(-c3ccccc3)nnc12` end up with in this test?
inactive

Look up the recorded call for `Cc1occc1C(=O)O/N=C(\N)c1ccccc1` in this test.
active

Look up the recorded call for `Cc1ccc(NS(=O)(=O)c2ccc3c(c2)CCC(=O)N3)cc1C` in this test.
inactive

Hi, sorry to bother you, what did the test record for `Cc1ccc(NS(=O)(=O)c2ccc(N3CCCC3=O)cc2)cc1C` ?
inactive

Test call, this compound: Cn1c2cc(S(C)=O)sc2c2cnn(Cc3cccc(O)c3)c(=O)c21 (centres undefined)
inactive

Which result was noted for this compound in the test: `Cc1ccc(NS(=O)(=O)c2ccc3c(ccn3C)c2)cc1C`
inactive

How was `Cc1cc(C)n2c(Nc3ccccc3)c(-c3ccc(C)o3)nc2n1` classified in this test?
inactive

// param item: `Cc1ccc(NS(=O)(=O)c2cc3c(cc2Br)NC(=O)CO3)cc1C` ; yields the recorded call
inactive

Call for entry `O=C1CCc2cc(S(=O)(=O)Nc3cccc(-c4ccccc4)c3)ccc2N1` :
inactive

// outcome(item) with item = `COc1ccc(C(=O)N=c2nc3ccccn3s2)cc1`
active

Short answer needed: outcome of this test for `O=C(/C=C1\C(=O)Nc2ccccc21)/C=C1\C(=O)Nc2ccccc21` ?
inactive

Entry `O=C1CCc2cc(S(=O)(=O)Nc3cccc(Cl)c3)ccc2N1` : call = ?
inactive

Lab log entry: `O=C1c2ccccc2C(=O)N1c1ccc2ccccc2n1` — outcome as called in the assay?
inactive

I would be grateful if you could indicate the recorded call for `Cc1ccc(NS(=O)(=O)c2ccc3c(c2)NC(=O)CO3)cc1C` .
inactive

Hi, sorry to bother you, what did the test record for `O=C1CCc2cc(S(=O)(=O)Nc3ccccc3Cl)ccc2N1` ?
inactive

Test call for this compound, please: `c1ccc(-c2nc(-c3ccccn3)no2)cc1`
active

Check the results log: what was the call for `O=C(/C=C/Nc1ccccc1Br)c1ccccn1` ?
active

Hey, what did the test say about `COc1cc(N2C(=O)C=CC2=O)c(OC)cc1Cl` ?
inactive

What classification did `Cc1ccc(NS(=O)(=O)c2ccc3c(c2)N(C)CCO3)cc1C` end up with in this test?
inactive

Which outcome was entered for the compound `Cc1ccccc1OC1=NS(=O)(=O)c2ccccc21` in this test?
inactive

Any idea what this test logged for `O=C1c2ccccc2C(=O)N1c1ccc(O)cc1` ?
inactive

Hello, I am checking results. What call was entered for `CC(C)CN=Cc1c(O)c([N+](=O)[O-])cc2oc3c(c12)CCCC3` ?
inactive

Short answer needed: outcome of this test for `O=C1c2ccccc2C(=O)N1c1cccnc1` ?
inactive

Tell me the recorded outcome of this test for `Cc1ccc(S(=O)(=O)/N=C2/C=C(Sc3ncn[nH]3)C(=O)c3ccccc32)c(C)c1` .
inactive

Short answer needed: outcome of this test for `O=C1c2ccccc2C(=O)N1C1CCCCC1` ?
inactive

Hi, sorry to bother you, what did the test record for `c1c2c(cc3sc(N4CCCCC4)nc13)OCO2` ?
active

What outcome does the record of this test show for `Cc1ccccc1N=CC1=C(O)c2ccccc2C1=O` ?
active

// param item: `O=C1CCc2cc(S(=O)(=O)Nc3ccc(F)cc3)ccc2N1` ; yields the recorded call
inactive

Recorded test call requested for `O=C1CCc2cc(S(=O)(=O)NCc3ccccc3)ccc2N1`
inactive

Given `Cc1ccc(NS(=O)(=O)c2ccc3c(c2)CC(=O)N3C)cc1C` , state the outcome it received in this test.
inactive

What did this assay record as the result for `O=C1c2ccccc2C(=O)N1c1ccncc1` ?
inactive

Recorded call for `CC[n+]1c(C)sc2sc3ccccc3c21` ?
inactive

Dear all, I need the recorded test outcome for `O=C1CCc2cc(S(=O)(=O)Nc3cccc(F)c3)ccc2N1` , thank you.
inactive

Per the records of this test, what outcome belongs to `Cc1ccc(NS(=O)(=O)c2cc3c(cc2N(C)C)NC(=O)CC3)cc1C` ?
inactive

Which outcome was assigned to `O=C(c1ccccc1)n1c(=S)nc2ccccn21` in this test?
active

Write down the call the test reported for this compound. Item: COc1cccc(Cn2ncc3c4sc(S(C)=O)cc4n(C)c3c2=O)c1 (centres undefined)
inactive

Dear colleague, could you share the recorded outcome for `O=C1CCc2cc(S(=O)(=O)Nc3ccc(-c4ccccc4)cc3)ccc2N1` when you have a moment?
inactive

// outcome(item) with item = `Cc1ccc(NS(=O)(=O)c2cc3c(cc2/C=C/c2ccccc2)NC(=O)CO3)cc1C`
inactive

Which outcome was entered for the compound `Cc1nc(N/N=C/c2ccccn2)sc1C` in this test?
active
